- Test system: MCF-7
- assay-remarks: In vitro MTT cytotoxicity assay
- Assay type: cell-based
- condition-set: Homo sapiens, MCF7
pIC50: −log10 of the molar value.
readout: pIC50

## Task Item CN1C(=O)C23Cc4ccc([N+](=O)[O-])cc4N2C(=O)C1(CO)SS3 (stereo not shown) has what recorded pIC50?
## Result < 5.70
